Measured values drawn from the RepoRT retention time repository for this set.

# measurement description: HILIC, Waters ACQUITY UPLC BEH Amide, 100 × 2.1 mm, 1.7 µm; A: water + 0.125% formic acid + 10 mM ammonium formate; B: 5% water + 95% acetonitrile + 0.125% formic acid + 10 mM ammonium formate; gradient (min/%B) 0/100 2/100 7.7/70 9.5/40 10.25/30 12.75/100 17/100
# run parameters: stereoisomer not certain
Let's look at some compounds and their measured LC retention time.
Give a bare numeral; the unit min is implied.

Please review the entries below; each comes with its answer.
COc1cc(N)c(Cl)cc1C(=O)NC1CN2CCC1CC2 (stereo not drawn) [Zacopride] ... 4.66
CNC[C@H](N)C(=O)O [beta-N-Methylaminoalanine] ... 9.32

Moving on to another compound below.
// query LC retention time value for entry NC(Cc1ccc(O)cc1)C(=O)NC(Cc1ccc(O)cc1)C(=O)NC(Cc1ccc(O)cc1)C(=O)O (stereo not drawn) [Tyr-Tyr-Tyr] 7.09

---

# measurement description: HILIC, Waters ACQUITY UPLC BEH Amide, 100 × 2.1 mm, 1.7 µm; A: water + 0.125% formic acid + 10 mM ammonium formate; B: 5% water + 95% acetonitrile + 0.125% formic acid + 10 mM ammonium formate; gradient (min/%B) 0/100 2/100 7.7/70 9.5/40 10.25/30 12.75/100 17/100
# run parameters: stereoisomer not certain
value kind: LC retention time (min)
Give a bare numeral; the unit min is implied.

CCCCCCCCCCCC(CC1OC(=O)C1CCCCCC)OC(=O)C(CC(C)C)NC=O (stereo not drawn) [Orlistat] ... 0.89
CN1CCC23c4c5ccc(O)c4OC2C(=O)CCC3(O)C1C5 (stereo not drawn) [Oxymorphone] ... 5.5

// query LC retention time value for entry C=COC(N)=O [Vinyl Carbamate] 1.34

---

# measurement description: HILIC, Waters ACQUITY UPLC BEH Amide, 100 × 2.1 mm, 1.7 µm; A: water + 0.125% formic acid + 10 mM ammonium formate; B: 5% water + 95% acetonitrile + 0.125% formic acid + 10 mM ammonium formate; gradient (min/%B) 0/100 2/100 7.7/70 9.5/40 10.25/30 12.75/100 17/100
# run parameters: stereoisomer not certain
Let's look at some molecules and their measured LC retention time.

Please review the entries below; each comes with its answer.
CC(C)CC(NC(=O)C(O)C(N)Cc1ccccc1)C(=O)O (stereo unspecified) ... 5.98 min
NC(CCC(=O)NC(Cc1ccc(O)cc1)C(=O)O)C(=O)O (stereo unspecified) ... 8.52 min
O=c1[nH]cnc2c1ncn2C1CCC(CO)O1 (stereo unspecified) ... 3.44 min
COC1=C(OC)C(=O)C(CCCCCCCCCCO)=C(C)C1=O ... 0.96 min
CN[C@@H](CCCCN)C(=O)O ... 7.35 min

// query LC retention time value for entry Cc1cccc(Nc2ccncc2S(=O)(=O)NC(=O)NC(C)C)c1 [Torasemide] 1.45 min

// query LC retention time value for entry CN(CCOc1ccc(CC2SC(=O)NC2=O)cc1)c1ccccn1 (stereo unspecified) 1.24 min

// query LC retention time value for entry Cc1cccc(C)c1NC(=O)C(C)N (stereo unspecified) [Tocainide] 4.97 min

// query LC retention time value for entry CC(C)(C)NC(=O)C1CCC2C3CCC4NC(=O)C=CC4(C)C3CCC12C (stereo unspecified) [Finasteride] 1.17 min

// query LC retention time value for entry O=c1cc(-c2ccc(O)cc2)oc2c(C3OC(CO)C(O)C(O)C3O)c(O)cc(O)c12 (stereo unspecified) 5.33 min

// query LC retention time value for entry CC12CC3CC(C)(C1)CC(N)(C3)C2 [Memantine] 4.24 min

// query LC retention time value for entry Cc1ccc(NC(=O)c2ccc(CN3CCN(C)CC3)cc2)cc1Nc1nccc(-c2cccnc2)n1 5.36 min

// query LC retention time value for entry CCCCCCCC=O 6.98 min

// query LC retention time value for entry C[N+](C)(C)CC(=O)[O-] 7.24 min

// query LC retention time value for entry Nc1[nH]c(=O)ncc1F 4.62 min

// query LC retention time value for entry NC(=O)c1ccccc1 [Benzamide] 1.27 min

---

# measurement description: HILIC, Waters ACQUITY UPLC BEH Amide, 100 × 2.1 mm, 1.7 µm; A: water + 0.125% formic acid + 10 mM ammonium formate; B: 5% water + 95% acetonitrile + 0.125% formic acid + 10 mM ammonium formate; gradient (min/%B) 0/100 2/100 7.7/70 9.5/40 10.25/30 12.75/100 17/100
# run parameters: stereoisomer not certain
value kind: LC retention time
Write the figure, then the unit, nothing else.

Please review the entries below; each comes with its answer.
O=Cc1c[nH]c2ccccc12 ... 1.16 min
CNCCC(Oc1cccc2ccccc12)c1cccs1 (centres undefined) ... 2.6 min
Cc1nc2ccc(CN(C)c3ccc(C(=O)NC(CCC(=O)O)C(=O)O)s3)cc2c(=O)[nH]1 (centres undefined) ... 7.35 min
c1ccc(C2CN3CCSC3=N2)cc1 (centres undefined) ... 2.95 min
CC(=O)OC(CC(=O)[O-])C[N+](C)(C)C (centres undefined) ... 7.19 min

// query LC retention time value for entry Oc1cc2ccccc2[nH]1 1.36 min

// query LC retention time value for entry CCCCCC(O)C=CC=O (centres undefined) [4-Hydroxynonenal] 1.07 min

// query LC retention time value for entry O=C1N(c2ccccc2)c2ccccc2C1(Cc1ccncc1)Cc1ccncc1 1.17 min

// query LC retention time value for entry CCC1(CC)C(=O)NCC(C)C1=O (centres undefined) 1.18 min

// query LC retention time value for entry O=C(O)CNC(=O)OCc1ccccc1 7.67 min

---

# measurement description: HILIC, Waters ACQUITY UPLC BEH Amide, 100 × 2.1 mm, 1.7 µm; A: water + 0.125% formic acid + 10 mM ammonium formate; B: 5% water + 95% acetonitrile + 0.125% formic acid + 10 mM ammonium formate; gradient (min/%B) 0/100 2/100 7.7/70 9.5/40 10.25/30 12.75/100 17/100
# run parameters: stereoisomer not certain
Let's look at some compounds and their measured log10(LC retention time).
A value of 2 here means LC retention time of 100 in min, since values are log10.

Please review the entries below; each comes with its answer.
NC(=NCc1ccc(Cl)cc1)SCCCc1cnc[nH]1 ... 0.79
O=C1C(c2c(O)[nH]c3ccccc23)=Nc2ccccc21 ... 0.03
Cc1ncc([N+](=O)[O-])n1CC(O)CCl (stereo not drawn) ... 0.03
CC(N)C(=O)NC(CCC(N)=O)C(=O)O (stereo not drawn) ... 0.96
O=C(O)C1CC(O)CN1C(=O)C1CCCN1 (stereo not drawn) [Proline-hydroxyproline] ... 0.93

// query log10(LC retention time) value for entry NC(CCC(=O)NC(CSSCC(N)C(=O)O)C(=O)NCC(=O)O)C(=O)O [L-Cysteine-glutathione disulfide] 1.01

// query log10(LC retention time) value for entry CNC1CCC(c2ccc(Cl)c(Cl)c2)c2ccccc21 (stereo not drawn) 0.44

// query log10(LC retention time) value for entry O=C1CCCCC1=O 0.76

// query log10(LC retention time) value for entry O=C(O)C1CCCN1 (stereo not drawn) 0.89

// query log10(LC retention time) value for entry CN(C)CCCSc1ccccc1NC(=O)C=Cc1ccccc1 0.42

// query log10(LC retention time) value for entry C=CC(C)(O)CCC=C(C)C (stereo not drawn) -0.01

// query log10(LC retention time) value for entry CN1CCC(c2ccc(F)cc2)C(COc2ccc3c(c2)OCO3)C1 (stereo not drawn) 0.34

// query log10(LC retention time) value for entry Nc1ccc2cn[nH]c2c1 0.10

// query log10(LC retention time) value for entry NC(N)=NCCCC(N)C(=O)O (stereo not drawn) 0.98

// query log10(LC retention time) value for entry CC(Cc1ccccc1)N(C)Cc1ccccc1 (stereo not drawn) 0.31

// query log10(LC retention time) value for entry O=C(CCCN1CCC(O)(c2ccc(Cl)cc2)CC1)c1ccc(F)cc1 0.36

---

Let's look at some compounds and their measured LC retention time.
# measurement description: HILIC, Waters ACQUITY UPLC BEH Amide, 100 × 2.1 mm, 1.7 µm; A: water + 0.125% formic acid + 10 mM ammonium formate; B: 5% water + 95% acetonitrile + 0.125% formic acid + 10 mM ammonium formate; gradient (min/%B) 0/100 2/100 7.7/70 9.5/40 10.25/30 12.75/100 17/100
# run parameters: stereoisomer not certain
Give a bare numeral; the unit min is implied.

Please review the entries below; each comes with its answer.
CC(=O)SCC(Cc1ccccc1)C(=O)NCC(=O)OCc1ccccc1 (stereo not given) [Racecadotril] ... 0.95
O=C(O)CC1C(=O)Nc2ccccc21 (stereo not given) [(2-oxo-2,3-dihydro-1H-indol-3-yl)acetic acid] ... 2.02
CC(C)CC(NC(=O)C(COC(C)(C)C)NC(=O)C(Cc1ccc(O)cc1)NC(=O)C(CO)NC(=O)C(Cc1c[nH]c2ccccc12)NC(=O)C(Cc1cnc[nH]1)NC(=O)C1CCC(=O)N1)C(=O)NC(CCCN=C(N)N)C(=O)N1CCCC1C(=O)NNC(N)=O (stereo not given) [Goserelin] ... 7.83
COc1ccccc1OCC(O)CN1CCN(CC(=O)Nc2c(C)cccc2C)CC1 (stereo not given) [Ranolazine] ... 2.79

// query LC retention time value for entry COc1ccc(CC(C)NCC(O)c2ccc(O)c(NC=O)c2)cc1 (stereo not given) [Formoterol] 5.18
